Test system: MCF7
Experiment: Cytotoxicity against estrogen receptor-positive human MCF7 cells assessed as cell viability at 10 uM after 24 hrs by MTT assay
Type: functional
Details: MCF7, 24 h, read-out: GI
Please respond with reported inhibition of growth at 10 µM for every item in the list.
Give bare numbers, in %.

Known results for compounds:
COMPOUND | UNIT OF MEASUREMENT | inhibition of growth at 10 µM
O=C(O)c1ccccc1C#CCOC(c1cccs1)c1cccnc1Cl (stereo unspecified) | % | 35.9
O=C1Nc2ccc(C#CCOC(c3cccs3)c3cccnc3Cl)cc2C1=O (stereo unspecified) | % | 71.9
O=[N+]([O-])c1ccccc1C#CCOC(c1cccs1)c1cccnc1Cl (stereo unspecified) | % | 34.8

Quick batch: inhibition of growth at 10 µM for everything below.
1. Clc1ncccc1C(OCC#Cc1ccc(I)cc1)c1cccs1 (stereo unspecified)
2. CCOC(=O)c1c(C#CCOC(c2cccs2)c2cccnc2Cl)sc2c1CCCC2 (stereo unspecified)
3. Nc1ccccc1C#CCOC(c1cccs1)c1cccnc1Cl (stereo unspecified)
4. O=C(O)c1ccc(C#CCOC(c2cccs2)c2cccnc2Cl)cc1 (stereo unspecified)
5. Oc1ccccc1C#CCOC(c1cccs1)c1cccnc1Cl (stereo unspecified)
6. CCOC(=O)c1sc2c(c1C#CCOC(c1cccs1)c1cccnc1Cl)CCC2 (stereo unspecified)
7. CCOC(=O)c1c[nH]nc1C#CCOC(c1cccs1)c1cccnc1Cl (stereo unspecified)
8. COc1ccc(C#CCOC(c2cccs2)c2cccnc2Cl)cc1 (stereo unspecified)

45.6
31.8
69.3
35.9
67.7
25
33.8
64.7

---

Assay: Cytotoxicity against human IMR32 cells assessed as cell viability at 10 uM after 24 hrs by MTT assay
Type: functional
Conditions: IMR-32, 24 h, read-out: GI
Label false if inhibition of growth at 10 µM falls below 40%; label true in every other case.

Record excerpt, results attached:
COMPOUND | LABEL VALUE
CCOC(=O)c1c[nH]nc1C#CCOC(c1cccs1)c1cccnc1Cl (stereo not given) | false
Clc1ncccc1C(OCC#Cc1ccc(I)cc1)c1cccs1 (stereo not given) | true
O=C(O)c1ccccc1C#CCOC(c1cccs1)c1cccnc1Cl (stereo not given) | false

Read the next record carefully.
Does the reported inhibition of growth at 10 µM for Oc1ccccc1C#CCOC(c1cccs1)c1cccnc1Cl (stereo not given) fall at or above the 40% mark?
false

---

Test: Cytotoxicity against human HEK293 cells assessed as cell viability at 10 uM after 24 hrs by MTT assay
Assay type: cell-based
Conditions: read-out: GI
ASSAY METRIC: inhibition at 24 h, 10 µM (%)
One number for each entry, in %.

COMPOUND | ASSAY METRIC | READOUT VALUE
Oc1ccccc1C#CCOC(c1cccs1)c1cccnc1Cl (stereo unspecified) | inhibition at 24 h, 10 µM | 6
O=C1Nc2ccc(C#CCOC(c3cccs3)c3cccnc3Cl)cc2C1=O (stereo unspecified) | inhibition at 24 h, 10 µM | 0.8
COc1ccc(C#CCOC(c2cccs2)c2cccnc2Cl)cc1 (stereo unspecified) | inhibition at 24 h, 10 µM | -1.1
O=C(O)c1ccc(C#CCOC(c2cccs2)c2cccnc2Cl)cc1 (stereo unspecified) | inhibition at 24 h, 10 µM | 4.8
CCOC(=O)c1c[nH]nc1C#CCOC(c1cccs1)c1cccnc1Cl (stereo unspecified) | inhibition at 24 h, 10 µM | 0.4

Quick batch: inhibition at 24 h, 10 µM for everything below.
1. O=[N+]([O-])c1ccccc1C#CCOC(c1cccs1)c1cccnc1Cl (stereo unspecified)
2. O=C(O)c1ccccc1C#CCOC(c1cccs1)c1cccnc1Cl (stereo unspecified)
3. Clc1ncccc1C(OCC#Cc1ccc(I)cc1)c1cccs1 (stereo unspecified)
4. CCOC(=O)c1sc2c(c1C#CCOC(c1cccs1)c1cccnc1Cl)CCC2 (stereo unspecified)
5. CCOC(=O)c1c(C#CCOC(c2cccs2)c2cccnc2Cl)sc2c1CCCC2 (stereo unspecified)
6. Nc1ccccc1C#CCOC(c1cccs1)c1cccnc1Cl (stereo unspecified)

1: 0.1; 2: 2.7; 3: 0; 4: -1.6; 5: -0.9; 6: 3.2

---

Please respond with reported inhibition of growth at 10 µM for every item in the list.
Test system: K562
Assay: Cytotoxicity against human K562 cells assessed as cell viability at 10 uM after 24 hrs by MTT assay
Assay type: functional
Settings: K562, 24 h, read-out: GI
One number for each entry, in %.

Quick batch: inhibition of growth at 10 µM for everything below.
1. CCOC(=O)c1c[nH]nc1C#CCOC(c1cccs1)c1cccnc1Cl (centres undefined)
2. COc1ccc(C#CCOC(c2cccs2)c2cccnc2Cl)cc1 (centres undefined)
3. Nc1ccccc1C#CCOC(c1cccs1)c1cccnc1Cl (centres undefined)
4. Clc1ncccc1C(OCC#Cc1ccc(I)cc1)c1cccs1 (centres undefined)

[54.8, 33.8, 43.8, 48]

---

Test system: MDA-MB-231
Experiment: Cytotoxicity against estrogen receptor-negative human MDA-MB-231 cells assessed as cell viability at 10 uM after 24 hrs by MTT assay
Assay type: functional
Conditions: MDA-MB-231, 24 h, read-out: GI
Label not fulfilled if inhibition of growth at 10 µM falls below 50%; label fulfilled in every other case.

Record excerpt, results attached:
COMPOUND | TESTED ON | LABEL VALUE
O=C(O)c1ccccc1C#CCOC(c1cccs1)c1cccnc1Cl (stereo not given) | MDA-MB-231 | not fulfilled
Nc1ccccc1C#CCOC(c1cccs1)c1cccnc1Cl (stereo not given) | MDA-MB-231 | fulfilled
CCOC(=O)c1c(C#CCOC(c2cccs2)c2cccnc2Cl)sc2c1CCCC2 (stereo not given) | MDA-MB-231 | not fulfilled
CCOC(=O)c1sc2c(c1C#CCOC(c1cccs1)c1cccnc1Cl)CCC2 (stereo not given) | MDA-MB-231 | not fulfilled

Read the next record carefully.
Does the reported inhibition of growth at 10 µM for Clc1ncccc1C(OCC#Cc1ccc(I)cc1)c1cccs1 (stereo not given) fall at or above the 50% mark?
fulfilled
